Each entry below carries its recorded pIC50.
Target: Mycobacterium tuberculosis protein tyrosine phosphatase B (MptpB) (Mycobacterium tuberculosis, UniProt I6WXK4)
Construct: The full-length PTPB gene was amplified from genomic DNA of the Mtb H37Rv strain; His6 (N); made in house
Sequence (I6WXK4 whole entry, looked up): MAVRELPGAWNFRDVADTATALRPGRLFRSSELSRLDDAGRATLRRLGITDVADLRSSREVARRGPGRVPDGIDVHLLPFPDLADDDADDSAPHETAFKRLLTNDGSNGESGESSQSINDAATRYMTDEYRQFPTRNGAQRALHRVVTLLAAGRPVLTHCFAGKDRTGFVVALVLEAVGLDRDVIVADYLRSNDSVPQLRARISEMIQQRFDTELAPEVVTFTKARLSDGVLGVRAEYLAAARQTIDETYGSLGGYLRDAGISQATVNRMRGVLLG
Assay: biochemical
Assay type: biochemical
Details: MptpB; substrate DiFMUP; average of two independent experiments; sodium orthovanadate as positive control
pIC50: −log10 of the molar value.
assay-endpoint: pIC50

- molecule: "COc1cc(O)c2c(c1O)C(c1cc(O)c3c(c1O)C(=O)C1=C(CC(O)C(C)(O)C1)C3=O)C1CC(C)(O)C(O)C(O)C1C2=O (stereo not drawn) [Compound 1, alterporriol S]"
  value-measured: 4.19
- molecule: "COc1cc(O)c2c(c1)C(=O)c1cc(C)c(O)c(-c3c(OC)cc4c(c3O)C(=O)C3=C(C4=O)[C@@H](O)[C@](C)(O)[C@H](O)[C@H]3O)c1C2=O [Compound 2, (+)-aS-alterporriol C]"
  value-measured: 5.06
- molecule: "[Na+].[Na+].[Na+].[O]=[V]([O-])([O-])[O-] [Control, sodium orthovanadate, reference compound]"
  value-measured: 7.30
